Target: NLRP3 (Homo sapiens)
Assay: IL-1β Secretion Assay (NLRP3-dependent IL1β secretion in THP1 cells)
Conditions: PMA-differentiated THP-1 cells; compounds incubated 20 h; 2.5 μM Nigericin 3 h; HTRF IL-1β readout; read-out: IC50 IL-1β Inhibition
# IC50 annotations

# Molecule, IC50
measured = [
    ("O[C@H]1COCC[C@H]1Nc1nnc(-c2ccc(C(F)(F)F)cc2CC(F)(F)F)c2cccn12 [Compound 114]", "1 to 10 nM"),
]

Shifting focus to the molecule that follows.
Identify the measured IC50 of Cc1ccc(-c2nnc(N[C@H]3C[C@@](C)(O)C3)n3cncc23)c(CC(F)(F)F)c1 [Compound 318] for NLRP3 (Homo sapiens).
1 to 10 nM

* * *

Target: NLRP3 (Homo sapiens, UniProt Q96P20)
Sequence (Q96P20 whole entry): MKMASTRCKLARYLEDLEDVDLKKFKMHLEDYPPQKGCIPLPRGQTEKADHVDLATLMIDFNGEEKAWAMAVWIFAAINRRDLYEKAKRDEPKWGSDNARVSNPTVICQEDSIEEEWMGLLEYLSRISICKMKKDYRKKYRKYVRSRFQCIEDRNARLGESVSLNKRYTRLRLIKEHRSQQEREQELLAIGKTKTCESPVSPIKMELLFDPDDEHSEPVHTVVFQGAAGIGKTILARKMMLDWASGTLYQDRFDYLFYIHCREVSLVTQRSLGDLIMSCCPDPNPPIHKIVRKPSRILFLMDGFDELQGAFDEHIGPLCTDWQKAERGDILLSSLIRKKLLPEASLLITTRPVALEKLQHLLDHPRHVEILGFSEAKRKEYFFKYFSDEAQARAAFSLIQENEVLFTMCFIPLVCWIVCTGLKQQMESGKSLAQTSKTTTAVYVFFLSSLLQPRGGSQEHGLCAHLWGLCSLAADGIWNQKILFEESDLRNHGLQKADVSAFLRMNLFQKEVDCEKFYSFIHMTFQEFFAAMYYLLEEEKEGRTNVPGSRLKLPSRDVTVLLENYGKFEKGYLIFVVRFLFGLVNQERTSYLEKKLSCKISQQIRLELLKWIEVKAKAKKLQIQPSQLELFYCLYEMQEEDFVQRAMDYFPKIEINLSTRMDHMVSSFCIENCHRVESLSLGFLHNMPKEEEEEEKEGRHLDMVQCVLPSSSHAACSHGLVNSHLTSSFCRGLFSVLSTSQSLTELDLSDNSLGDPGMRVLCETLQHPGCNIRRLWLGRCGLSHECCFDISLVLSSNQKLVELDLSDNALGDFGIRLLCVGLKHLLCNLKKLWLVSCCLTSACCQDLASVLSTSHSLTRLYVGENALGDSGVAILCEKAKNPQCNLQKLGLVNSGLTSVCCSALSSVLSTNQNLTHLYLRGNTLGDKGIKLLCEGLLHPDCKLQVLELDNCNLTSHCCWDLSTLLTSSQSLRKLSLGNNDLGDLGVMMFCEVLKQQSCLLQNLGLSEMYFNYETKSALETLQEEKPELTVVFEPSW
Assay: IL-1β Secretion Assay (NLRP3-dependent IL1β secretion in THP1 cells)
Details: PMA-differentiated THP-1 cells; compounds incubated 20 h; 2.5 μM Nigericin 3 h; HTRF IL-1β readout; read-out: IC50 IL-1β Inhibition
Assay metric: IC50

# Compound, Assayed target, IC50
records = [
    ("COc1ccc(-c2nnc(N[C@H]3CCCC[C@@H]3O)n3cc(C)cc23)c(OC(F)(F)F)c1 [Compound 133]", "NLRP3 (Homo sapiens, UniProt Q96P20)", "10 to 100 nM"),
    ("CC(C)(O)C1CC(Nc2nnc(-c3ccc(C(F)(F)F)cc3CC(F)(F)F)c3cncn23)C1 (stereo not drawn) [Compound 339]", "NLRP3 (Homo sapiens, UniProt Q96P20)", "10 to 100 nM"),
    ("CN1CCC[C@@H](Nc2nnc(-c3ccc(C4CC4)cc3C(F)(F)F)c3cncn23)C1 [Compound 207]", "NLRP3 (Homo sapiens, UniProt Q96P20)", "< 1 nM"),
    ("O=C1NCCC1Nc1nnc(-c2ccc(C(F)(F)F)cc2C(F)(F)F)c2ccnn12 (stereo not drawn) [Compound 396]", "NLRP3 (Homo sapiens, UniProt Q96P20)", "10 to 100 nM"),
]

Sample COc1ccc(-c2nnc(Nc3cc[nH]n3)n3ccc(F)c23)c(C(F)(F)F)c1 [Compound 117] — what was its IC50?
10 to 100 nM

Sample COc1ccc(-c2nnc(N[C@@H]3C[C@@H](F)CN(C)C3)n3ccc(F)c23)c(OC(F)(F)F)c1 [Compound 52] — what was its IC50?
1 to 10 nM

* * *

Molecular target: NLRP3 (Homo sapiens)
Assay: IL-1β Secretion Assay (NLRP3-dependent IL1β secretion in THP1 cells)
Settings: PMA-differentiated THP-1 cells; compounds incubated 20 h; 2.5 μM Nigericin 3 h; HTRF IL-1β readout; read-out: IC50 IL-1β Inhibition
Description: Monocytic THP-1 cells (ATCC: TIB-202) were maintained in growth media consisting of RPMI 1640 medium (ThermoFisher, Cat #11875-085), 10% FBS (ThermoFisher) and 0.05 mM β-mercaptoethanol (ThermoFisher, Cat #21985-023), according to the provider's instructions. […] Compounds, once produced and prepared according to the present invention, can be assessed in variety of assays to characterize their activities. For example, NLRP3-dependent IL1β secretion was evaluated in THP1 cells. […]
Assay metric: IC50

Example cases with answers are listed next.
# Molecule, IC50
measured = [
    ("COc1ccc(-c2nnc(Nc3cc[nH]n3)n3cncc23)c(C(F)(F)F)c1", "10 to 100 nM"),
    ("COc1ccc(-c2nnc(N[C@H]3C[C@@](C)(O)C3)n3ccc(F)c23)c(OC(F)(F)F)c1", "10 to 100 nM"),
    ("O[C@H]1CC[C@@H](Nc2nnc(-c3ccc(C(F)(F)F)cc3C(F)(F)F)c3cncn23)CC1", "10 to 100 nM"),
]

Sample CCN1CCC[C@@H](Nc2nnc(-c3ccc(C(F)(F)F)cc3OC3CC3)c3cccn23)C1 — what was its IC50?
1 to 10 nM

Sample FC(F)Oc1ccc(-c2nnc(Nc3cc[nH]n3)n3cncc23)c(OC(F)(F)F)c1 — what was its IC50?
10 to 100 nM

Sample O[C@H]1CCCC[C@@H]1Nc1nnc(-c2ccc(C(F)(F)F)cc2C(F)(F)F)c2cncn12 — what was its IC50?
10 to 100 nM

Sample COc1ccc(-c2nnc(NC[C@H](C)O)n3cccc23)c(OC(F)(F)F)c1 — what was its IC50?
10 to 100 nM

* * *

Molecular target: NLRP3 (Homo sapiens, UniProt Q96P20)
Assay: IL-1β Secretion Assay (NLRP3-dependent IL1β secretion in THP1 cells)
Conditions: PMA-differentiated THP-1 cells; compounds incubated 20 h; 2.5 μM Nigericin 3 h; HTRF IL-1β readout; read-out: IC50 IL-1β Inhibition
pIC50: −log10 of the molar value.
Assay metric: pIC50

Example cases with answers are listed next.
# Compound, pIC50
data = [
    ("Cc1cc(C(F)(F)F)cc(OC(F)F)c1-c1nnc(N[C@@H]2CCCN(C)C2)n2cccc12", "7.00 to 8.00"),
    ("O[C@@H]1CCCC[C@H]1Nc1nnc(-c2ccc(OC(F)F)cc2OC(F)(F)F)c2cncn12", "> 9.00"),
    ("C[C@]1(O)C[C@@H](Nc2nnc(-c3ccc(C(F)(F)F)cc3OC(F)(F)F)c3cccn23)C1", "8.00 to 9.00"),
    ("CCN1C[C@H](F)C[C@@H](Nc2nnc(-c3ccc(C(F)(F)F)cc3OC(F)F)c3c(F)ccn23)C1", "8.00 to 9.00"),
    ("COc1ccc(-c2nnc(N[C@H]3C[C@@](C)(O)C3)n3cncc23)c(C(F)(F)F)c1", "8.00 to 9.00"),
]

Sample O[C@H]1CCC[C@@H](Nc2nnc(-c3ccc(C(F)(F)F)cc3OC(F)(F)F)c3cccn23)C1 — what was its pIC50?
8.00 to 9.00

Sample CC(Nc1nnc(-c2ccc(C(F)(F)F)cc2OC(F)(F)F)c2cncn12)c1cccc(O)c1 (centres unmarked) — what was its pIC50?
8.00 to 9.00

Sample C[C@]1(O)C[C@@H](Nc2nnc(-c3ccc(C(F)(F)F)cc3CC(F)(F)F)c3cccn23)C1 — what was its pIC50?
8.00 to 9.00

* * *

# IC50 annotations
Target: NLRP3 (Homo sapiens, UniProt Q96P20)
Construct: host or cells: THP-1 cells differentiated with PMA
Test: IL-1β Secretion Assay (NLRP3-dependent IL1β secretion in THP1 cells)
Assay type: cell-based
Settings: PMA-differentiated THP-1 cells; compounds incubated 20 h; 2.5 μM Nigericin 3 h; HTRF IL-1β readout; read-out: IC50 IL-1β Inhibition

# Compound, Assayed target, IC50
records = [
    ("O[C@H]1CCC[C@@H](Nc2nnc(-c3ccc(C(F)(F)F)cc3C(F)(F)F)c3cncn23)C1", "NLRP3 (Homo sapiens, UniProt Q96P20)", "10 to 100 nM"),
    ("COc1ccc(-c2nnc(N[C@@H]3CCOC[C@H]3O)n3cncc23)c(OC(F)F)c1", "NLRP3 (Homo sapiens, UniProt Q96P20)", "1 to 10 nM"),
    ("COc1ccc(-c2nnc(NC3CCNC3=O)n3nc(C)cc23)c(CC(F)(F)F)c1 (stereo not shown)", "NLRP3 (Homo sapiens, UniProt Q96P20)", "10 to 100 nM"),
]

Shifting focus to the compound that follows.
Identify the measured IC50 of COc1ccc(-c2nnc(NCc3nccn3C)n3cccc23)c(OC(F)(F)F)c1 for NLRP3 (Homo sapiens, UniProt Q96P20).
10 to 100 nM

* * *

Biological target: NLRP3 (Homo sapiens, UniProt Q96P20)
Construct: host or cells: THP-1 cells differentiated with PMA
Experiment: IL-1β Secretion Assay (NLRP3-dependent IL1β secretion in THP1 cells)
Format: cell-based
Settings: PMA-differentiated THP-1 cells; compounds incubated 20 h; 2.5 μM Nigericin 3 h; HTRF IL-1β readout; read-out: IC50 IL-1β Inhibition
pIC50: −log10 of the molar value.
# pIC50 annotations

# Molecule, pIC50
data = [
    ("C[C@]1(O)C[C@@H](Nc2nnc(-c3ccc(Cl)cc3OC(F)F)c3cncn23)C1", "8.00 to 9.00"),
    ("COc1ccc(-c2nnc(N[C@@H]3C[C@@H](F)CN(C)C3)n3cncc23)c(CC(F)(F)F)c1", "8.00 to 9.00"),
    ("COc1ccc(-c2nnc(N[C@H]3C[C@@](C)(O)C3)n3cccc23)c(OC(F)(F)F)c1", "8.00 to 9.00"),
    ("COc1ccc(-c2nnc(NC(C)c3cccc(O)c3)n3cncc23)c(CC(F)(F)F)c1 (stereo not drawn)", "> 9.00"),
]

Sample CC(C)(O)C1CC(Nc2nnc(-c3ccc(C(F)(F)F)cc3OC(F)(F)F)c3cncn23)C1 (stereo not drawn) — what was its pIC50?
7.00 to 8.00

Sample CCN1CCC[C@@H](Nc2nnc(-c3ccc(OC)cc3C(F)(F)F)c3c(F)ccn23)C1 — what was its pIC50?
8.00 to 9.00

Sample Cc1cc2c(-c3ccc(C4CC4)cc3OC(F)F)nnc(N[C@@H]3CCCN(C)C3)n2n1 — what was its pIC50?
> 9.00

Sample CN1CCC[C@@H](Nc2nnc(-c3ccc(Br)cc3OC(F)F)c3cncn23)C1 — what was its pIC50?
> 9.00

Sample COc1ccc(-c2nnc(N[C@@H]3CCC[C@H]3O)n3cncc23)c(OC(F)(F)F)c1 — what was its pIC50?
7.00 to 8.00
